test system: Canis familiaris; assay: Fraction of drug absorbed into portal vein in dog at 3 mg/kg, po by LC-MS/MS analysis; type: ADME, organism-based, Canis lupus familiaris; conditions: in vivo
Measured quantity: FaFg
Reply briefly: the number, and no unit.

Record lookup: for Canis familiaris, what FaFg belongs to Cc1cc(C(=O)N[C@H]2CCCCC/C=C\[C@@H]3C[C@@]3(C(=O)NS(=O)(=O)C3CC3)NC(=O)[C@@H]3C[C@@H](Oc4nc5ccccc5nc4C)CN3C2=O)no1 ? 0.2

Record lookup: for Canis familiaris, what FaFg belongs to Cc1cc(C(=O)N[C@H]2CCCCC/C=C\[C@@H]3C[C@@]3(C(=O)NS(=O)(=O)C3CC3)NC(=O)[C@@H]3C[C@@H](Oc4nc5cc(F)ccc5nc4C(F)(F)F)CN3C2=O)no1 ? 0.8

Record lookup: for Canis familiaris, what FaFg belongs to Cc1cc(C(=O)N[C@H]2CCCCC/C=C\[C@@H]3C[C@@]3(C(=O)NS(=O)(=O)C3(C)CC3)NC(=O)[C@@H]3C[C@@H](Oc4nc5cc(F)ccc5nc4C(F)(F)F)CN3C2=O)no1 ? 0.9

Next:
Record lookup: for Canis familiaris, what FaFg belongs to Cc1cc(C(=O)N[C@H]2CCCCC/C=C\[C@@H]3C[C@@]3(C(=O)NS(=O)(=O)C3CC3)NC(=O)[C@@H]3C[C@@H](Oc4nc5ccccc5nc4C(F)(F)F)CN3C2=O)no1 ? 1.5

Record lookup: for Canis familiaris, what FaFg belongs to Cc1cc(C(=O)N[C@H]2CCCCC/C=C\[C@@H]3C[C@@]3(C(=O)NS(=O)(=O)C3(C)CC3)NC(=O)[C@@H]3C[C@@H](Oc4nc5ccccc5c5ccc(F)cc45)CN3C2=O)no1 ? 1.4

Record lookup: for Canis familiaris, what FaFg belongs to Cn1ccc(C(=O)N[C@H]2CCCCC/C=C\[C@@H]3C[C@@]3(C(=O)NS(=O)(=O)C3(C)CC3)NC(=O)[C@@H]3C[C@@H](Oc4nc5cc(OC(F)(F)F)ccc5c5ccc(F)cc45)CN3C2=O)n1 ? 0.8

Record lookup: for Canis familiaris, what FaFg belongs to CC(=O)N(C)[C@@H](CC(C)(C)C)C(=O)N[C@H]1CCCCC/C=C\[C@@H]2C[C@@]2(C(=O)NS(=O)(=O)C2(C)CC2)NC(=O)[C@@H]2C[C@@H](Oc3nc4cc(F)ccc4c4ccccc34)CN2C1=O ? 0.8

* * *

Items are presented alongside their recorded Solubility.
experiment: Solubility in pH 7.2 buffer; format: physicochemical

Some solved cases for reference:
I have this compound here, Cc1cc(C(=O)N[C@H]2CCCCC/C=C\[C@@H]3C[C@@]3(C(=O)NS(=O)(=O)C3CC3)NC(=O)[C@@H]3C[C@@H](Oc4nc5cc(F)ccc5nc4C)CN3C2=O)no1 , and I need its recorded Solubility. > 500 µM

I have this compound here, Cc1cc(C(=O)N[C@H]2CCCCC/C=C\[C@@H]3C[C@@]3(C(=O)NS(=O)(=O)C3CC3)NC(=O)[C@@H]3C[C@@H](Oc4nc5ccccc5nc4C)CN3C2=O)no1 , and I need its recorded Solubility. > 500 µM

Next:
I have this compound here, Cn1ccc(C(=O)N[C@H]2CCCCC/C=C\[C@@H]3C[C@@]3(C(=O)NS(=O)(=O)C3(C)CC3)NC(=O)[C@@H]3C[C@@H](Oc4nc5cc(OC(F)(F)F)ccc5c5ccc(F)cc45)CN3C2=O)n1 , and I need its recorded Solubility. 0.65 µM

* * *

experiment: Half life in dog at 3 mg/kg, po by LC-MS/MS analysis; format: ADME, organism-based, Canis lupus familiaris; details: in vivo
Measured quantity: half-life (h)
Write it as a number; the unit h goes unstated.

I have this compound here, Cc1cc(C(=O)N[C@H]2CCCCC/C=C\[C@@H]3C[C@@]3(C(=O)NS(=O)(=O)C3(C)CC3)NC(=O)[C@@H]3C[C@@H](Oc4nc5ccccc5c5ccc(F)cc45)CN3C2=O)no1 , and I need its recorded half-life. 2

I have this compound here, CC(=O)N(C)[C@@H](CC(C)(C)C)C(=O)N[C@H]1CCCCC/C=C\[C@@H]2C[C@@]2(C(=O)NS(=O)(=O)C2(C)CC2)NC(=O)[C@@H]2C[C@@H](Oc3nc4cc(F)ccc4c4ccccc34)CN2C1=O , and I need its recorded half-life. 2.1

I have this compound here, Cc1cc(C(=O)N[C@H]2CCCCC/C=C\[C@@H]3C[C@@]3(C(=O)NS(=O)(=O)C3CC3)NC(=O)[C@@H]3C[C@@H](Oc4nc5ccccc5nc4C(F)(F)F)CN3C2=O)no1 , and I need its recorded half-life. 1.5

I have this compound here, Cc1cc(C(=O)N[C@H]2CCCCC/C=C\[C@@H]3C[C@@]3(C(=O)NS(=O)(=O)C3CC3)NC(=O)[C@@H]3C[C@@H](Oc4nc5cc(F)ccc5nc4C(F)(F)F)CN3C2=O)no1 , and I need its recorded half-life. 2.2

I have this compound here, Cn1ccc(C(=O)N[C@H]2CCCCC/C=C\[C@@H]3C[C@@]3(C(=O)NS(=O)(=O)C3(C)CC3)NC(=O)[C@@H]3C[C@@H](Oc4nc5cc(OC(F)(F)F)ccc5c5ccc(F)cc45)CN3C2=O)n1 , and I need its recorded half-life. 4

I have this compound here, Cc1cc(C(=O)N[C@H]2CCCCC/C=C\[C@@H]3C[C@@]3(C(=O)NS(=O)(=O)C3CC3)NC(=O)[C@@H]3C[C@@H](Oc4nc5cc(F)ccc5nc4C)CN3C2=O)no1 , and I need its recorded half-life. 2

I have this compound here, Cc1cc(C(=O)N[C@H]2CCCCC/C=C\[C@@H]3C[C@@]3(C(=O)NS(=O)(=O)C3(C)CC3)NC(=O)[C@@H]3C[C@@H](Oc4nc5cc(F)ccc5nc4C(F)(F)F)CN3C2=O)no1 , and I need its recorded half-life. 2.9

* * *

test: Plasma clearance in iv dosed rat by LC-MS/MS analysis; format: ADME, organism-based
Measured quantity: clearance (L/h/kg)
Write it as a number; the unit L/h/kg goes unstated.

Some solved cases for reference:
I have this molecule here, Cc1cc(C(=O)N[C@H]2CCCCC/C=C\[C@@H]3C[C@@]3(C(=O)NS(=O)(=O)C3(C)CC3)NC(=O)[C@@H]3C[C@@H](Oc4nc5ccccc5c5ccc(F)cc45)CN3C2=O)no1 , and I need its recorded clearance. 2.5

I have this molecule here, CC(=O)N(C)[C@@H](CC(C)(C)C)C(=O)N[C@H]1CCCCC/C=C\[C@@H]2C[C@@]2(C(=O)NS(=O)(=O)C2(C)CC2)NC(=O)[C@@H]2C[C@@H](Oc3nc4cc(F)ccc4c4ccccc34)CN2C1=O , and I need its recorded clearance. 3.1

I have this molecule here, Cn1ccc(C(=O)N[C@H]2CCCCC/C=C\[C@@H]3C[C@@]3(C(=O)NS(=O)(=O)C3(C)CC3)NC(=O)[C@@H]3C[C@@H](Oc4nc5cc(OC(F)(F)F)ccc5c5ccc(F)cc45)CN3C2=O)n1 , and I need its recorded clearance. 1.1

Next:
I have this molecule here, Cc1cc(C(=O)N[C@H]2CCCCC/C=C\[C@@H]3C[C@@]3(C(=O)NS(=O)(=O)C3CC3)NC(=O)[C@@H]3C[C@@H](Oc4nc5ccccc5nc4C)CN3C2=O)no1 , and I need its recorded clearance. 4.7

I have this molecule here, Cc1cc(C(=O)N[C@H]2CCCCC/C=C\[C@@H]3C[C@@]3(C(=O)NS(=O)(=O)C3CC3)NC(=O)[C@@H]3C[C@@H](Oc4nc5ccccc5nc4C(F)(F)F)CN3C2=O)no1 , and I need its recorded clearance. 0.21

I have this molecule here, Cc1cc(C(=O)N[C@H]2CCCCC/C=C\[C@@H]3C[C@@]3(C(=O)NS(=O)(=O)C3CC3)NC(=O)[C@@H]3C[C@@H](Oc4nc5cc(F)ccc5nc4C(F)(F)F)CN3C2=O)no1 , and I need its recorded clearance. 2.3

I have this molecule here, Cc1cc(C(=O)N[C@H]2CCCCC/C=C\[C@@H]3C[C@@]3(C(=O)NS(=O)(=O)C3(C)CC3)NC(=O)[C@@H]3C[C@@H](Oc4nc5cc(F)ccc5nc4C(F)(F)F)CN3C2=O)no1 , and I need its recorded clearance. 1.6

* * *

system: Canis familiaris; assay: Dose normalized AUC in dog at 3 mg/kg, po after 24 hrs by LC-MS/MS analysis; format: ADME, organism-based, Canis lupus familiaris; conditions: in vivo
Measured quantity: AUC/dose (µg·h/mL)
Write it as a number; the unit µg·h/mL goes unstated.

Record lookup: for Canis familiaris, what AUC/dose belongs to Cc1cc(C(=O)N[C@H]2CCCCC/C=C\[C@@H]3C[C@@]3(C(=O)NS(=O)(=O)C3CC3)NC(=O)[C@@H]3C[C@@H](Oc4nc5ccccc5nc4C(F)(F)F)CN3C2=O)no1 ? 6.76

Record lookup: for Canis familiaris, what AUC/dose belongs to Cc1cc(C(=O)N[C@H]2CCCCC/C=C\[C@@H]3C[C@@]3(C(=O)NS(=O)(=O)C3CC3)NC(=O)[C@@H]3C[C@@H](Oc4nc5ccccc5nc4C)CN3C2=O)no1 ? 0.3

Record lookup: for Canis familiaris, what AUC/dose belongs to Cc1cc(C(=O)N[C@H]2CCCCC/C=C\[C@@H]3C[C@@]3(C(=O)NS(=O)(=O)C3(C)CC3)NC(=O)[C@@H]3C[C@@H](Oc4nc5cc(F)ccc5nc4C(F)(F)F)CN3C2=O)no1 ? 46.8

Record lookup: for Canis familiaris, what AUC/dose belongs to CC(=O)N(C)[C@@H](CC(C)(C)C)C(=O)N[C@H]1CCCCC/C=C\[C@@H]2C[C@@]2(C(=O)NS(=O)(=O)C2(C)CC2)NC(=O)[C@@H]2C[C@@H](Oc3nc4cc(F)ccc4c4ccccc34)CN2C1=O ? 11.6

Record lookup: for Canis familiaris, what AUC/dose belongs to Cc1cc(C(=O)N[C@H]2CCCCC/C=C\[C@@H]3C[C@@]3(C(=O)NS(=O)(=O)C3(C)CC3)NC(=O)[C@@H]3C[C@@H](Oc4nc5ccccc5c5ccc(F)cc45)CN3C2=O)no1 ? 85

Next:
Record lookup: for Canis familiaris, what AUC/dose belongs to Cn1ccc(C(=O)N[C@H]2CCCCC/C=C\[C@@H]3C[C@@]3(C(=O)NS(=O)(=O)C3(C)CC3)NC(=O)[C@@H]3C[C@@H](Oc4nc5cc(OC(F)(F)F)ccc5c5ccc(F)cc45)CN3C2=O)n1 ? 138

Record lookup: for Canis familiaris, what AUC/dose belongs to Cc1cc(C(=O)N[C@H]2CCCCC/C=C\[C@@H]3C[C@@]3(C(=O)NS(=O)(=O)C3CC3)NC(=O)[C@@H]3C[C@@H](Oc4nc5cc(F)ccc5nc4C(F)(F)F)CN3C2=O)no1 ? 18

Record lookup: for Canis familiaris, what AUC/dose belongs to Cc1cc(C(=O)N[C@H]2CCCCC/C=C\[C@@H]3C[C@@]3(C(=O)NS(=O)(=O)C3CC3)NC(=O)[C@@H]3C[C@@H](Oc4nc5cc(F)ccc5nc4C)CN3C2=O)no1 ? 18
